test: NCI Yeast Anticancer Drug Screen. Data for the rad50 strain (AID 155);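 further: 0% = growth of vehicle-only cultures of the same strain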; conditions: S. cerevisiae rad50 strain growth inhibition; at 5.0 µM (retest, dose inferred, filed as 0.5); active compounds read high
About 79,000 compounds went through this panel and 15% of them were active in at least one assay; those are over-represented in the sample as a whole.
ASSAY_METRIC: growth inhibition (%)
Dear colleague, please return just the value in %, with no unit written.

Worked cases, growth inhibition given:
molecule="CCC(C)OC(=S)S (stereo unspecified)" assay_metric="growth inhibition" assay_result=4
molecule=CN(NS(=O)(=O)c1cccc([N+](=O)[O-])c1)c1ccccc1 assay_metric="growth inhibition" assay_result=-2
molecule=Cc1[nH]n(C(N)=S)c(=O)c1N=Nc1ccc([N+](=O)[O-])cc1 assay_metric="growth inhibition" assay_result=-19

# ---- query molecule ----
**Query** State its growth inhibition: OC(Cn1cncn1)(Cn1cncn1)c1ccc(Cl)cc1Cl
**Result** 66

---

Listing of entries alongside the reported growth inhibition.
assay: NCI Yeast Anticancer Drug Screen. Data for the cln2 rad14 strain (AID 165);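 further: 0% = growth equal to vehicle treated cultures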; details: S. cerevisiae cln2 rad14 strain, at 50.0 µM (retest, dose inferred, filed as 5.0), active compounds read high
The panel holds about 79,000 compounds, 15% with a hit somewhere; the sample as a whole holds those more often.
Number only, in %; omit the unit.

Worked cases, answers included:
compound="O=C(Nc1nc2c(ncn2C2CC(OC(=O)c3ccccc3)C(COC(=O)c3ccccc3)O2)c(=O)[nH]1)c1ccccc1 (stereo unspecified)" assay_metric="growth inhibition" assay_result=18
compound=COC(=O)c1cc(=O)n(-c2ccccc2C(F)(F)F)c(SC)n1 assay_metric="growth inhibition" assay_result=87
compound=O=C(/C=C(\C(=O)c1ccccc1)N(/C(=C/C(=O)c1ccccc1)C(=O)c1ccccc1)c1ccccc1)c1ccccc1 assay_metric="growth inhibition" assay_result=-21
compound=CCN(CC)CCCNc1ccc([N+](=O)[O-])c2nc3ccc(OC)cc3c(N)c12 assay_metric="growth inhibition" assay_result=31
compound="CSc1nc(NC2OC(CO)C(O)C(O)C2O)c(Cl)c(=O)[nH]1 (stereo unspecified)" assay_metric="growth inhibition" assay_result=-2

**Query** State its growth inhibition: CC(=O)/C=N/Nc1ccccc1
**Result** -8

**Query** For the compound Cc1ccc2c(c1)C1(SC(CC(=O)O)C(=O)N1c1ccc(Cl)cc1)C(=O)N2 (stereo unspecified) , give its reported growth inhibition.
**Result** -4

**Query** Determine its reported growth inhibition: O=C(CCCSCCCC(=O)NNc1ccccc1)NNc1ccccc1
**Result** 92

**Query** Report growth inhibition, nothing else, for this compound: CC(NNC(=S)N1CCCCCC1)c1cccnn1 (stereo unspecified)
**Result** 99

**Query** Dear colleague, please send me the reported growth inhibition for CN(C)C(=S)Oc1ccc(C(C)(C)C)cc1 when you can.
**Result** -68

**Query** Specify measured growth inhibition for CCOC(=O)c1c(C)n(C)c2c1nnc1ccccc12 .
**Result** 69

---

assay: NCI Yeast Anticancer Drug Screen. Data for the cln2 rad14 strain (AID 165);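 further: 0% = growth equal to vehicle treated cultures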; conditions: S. cerevisiae cln2 rad14 strain, at 50.0 µM (retest, dose inferred, filed as 5.0), active compounds read high
Compounds without any hit were thinned out: in the full panel of roughly 79,000, 15% have a hit. Where a SMILES comes first, the peptide text is derived from it. Bridges are numbered along the chain shown (N, C = ends). [ ]: non-standard residue; d: D form. NMeV = CN[CH](C(=O)O)C(C)C; Sar = CNCC(=O)O
Threshold check on growth inhibition: at or above 20% gives True, strictly below gives False.

Consider the following illustrative entries.
molecule="CC1CCCCC12C(C#N)(C#N)C2(C#N)C#N (centres undefined)" assigned_category=True
molecule="CC1(C)C2CCC1(CS(=O)O)C(=O)C2.[Ag] (centres undefined)" assigned_category=True
molecule="COc1cccc(C(c2cc3c(cc2O)OCO3)N2CCCC2)c1O (centres undefined)" assigned_category=True
molecule="O=C(OCc1ccccc1)N1N=NC2C1C1CC(OCc3ccccc3)(OCc3ccccc3)C2O1 (centres undefined)" assigned_category=False

**Query** Kindly determine if growth inhibition recorded for CC(C)C1NC(=O)C(N)C(C)OC(=O)C(C(C)C)N(C)C(=O)CN(C)C(=O)C2CCCN2C1=O (centres undefined) (tested in a mixture with another compound) (H-TVP[Sar][NMeV]; ester 1-C; configuration not given here) is above or exactly 20%.
**Result** True

**Query** Say whether CC(C)CCCC(C)C1CCC2C3CCC4=CC(O)CCC4(C)C3CCC12C (centres undefined) shows growth inhibition of 20% or more.
**Result** True

**Query** Could you verify whether the entry COc1ccc(/C(Cl)=C(\c2ccc(OCCN(C)C)cc2)c2ccc(OC(=O)C(C)(C)C)cc2)cc1 shows growth inhibition of no less than 20%?
**Result** False

**Query** Could you please find out whether COc1ccc(/C=C/C(C)=N/NC(=S)NCC(C)C)cc1 has growth inhibition that meets 20% or exceeds it?
**Result** True

**Query** Reported growth inhibition at or above 20%? COc1ccc(CNC(C#N)c2ccccc2)cc1OC (centres undefined)
**Result** False

**Query** Test whether the molecule CCCN(CCC)c1ccc(Cc2ccc(N(CCC)CCC)cc2N)c(N)c1 records growth inhibition of 20% or higher.
**Result** True

**Query** Confirm if growth inhibition reported for the molecule CCCOC(=O)C1CCCCC1C(=O)OCCC (centres undefined) is 20% or above.
**Result** False

---

assay: NCI Yeast Anticancer Drug Screen. Data for the bub3 strain (AID 167); settings: S. cerevisiae bub3 mutant strain, at 5.0 µM (retest, dose inferred, filed as 0.5), active compounds read high
The panel holds about 79,000 compounds, 15% with a hit somewhere; the sample as a whole holds those more often.
Everything with growth inhibition lower than 20% is no (0); everything else, including exactly 20%, is yes (1).

Use these answered entries as a reference point.
molecule="CC(=O)N(C(C)=O)C1=C2c3ccccc3N(S(=O)(=O)c3ccccc3)C2n2c(=O)n(-c3ccccc3)c(=O)n2C1 (stereo not drawn)" assigned_category="no (0)"
molecule=CCCCCCCCCCCCCCCCCC[n+]1cccc(C(=O)N2CCOCC2)c1 assigned_category="yes (1)"
molecule=COC(=O)c1nnc(C(=O)OC)c2c1[nH]c1ccccc12 assigned_category="no (0)"
molecule="CC12CCC(C(Br)(Br)C1=O)C2(C)C (stereo not drawn)" assigned_category="no (0)"
molecule=CN1C(=O)CCCCCCCCCCSc2ccccc21 assigned_category="no (0)"

**Query** Could you verify whether the entry COC1=C(Br)C(=O)N/C1=C(\OC)c1ccccc1 shows growth inhibition of no less than 20%?
**Result** yes (1)

**Query** Has CN(C)c1ccc(SC(=S)NCc2ccccc2)cc1 a recorded growth inhibition greater than or equal to 20%?
**Result** no (0)

**Query** Textbook exercise: given the entry CC(=C/c1ccccc1)/C=C1/NC(=S)N(/C=C2\C(=O)Oc3ccccc3C2=O)C1=O , state whether its growth inhibition is greater than or equal to 20%.
**Result** no (0)

---

Assay: NCI Yeast Anticancer Drug Screen. Data for the rad50 strain (AID 155);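 further: 0% = growth of vehicle-only cultures of the same strain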
Settings: S. cerevisiae rad50 strain growth inhibition; at 50.0 µM; active compounds read high
Experimental: Growth inhibition of yeast strains with defined genetic alterations is measured as a screen for potential anti-cancer activity. Selected strains with alterations in DNA damage repair or cell cycle control were exposed to compounds and growth inhibition was measured relative to vehicle treated controls. The strain used in this assay is rad50
Compounds without any hit were thinned out: in the full panel of roughly 79,000, 15% have a hit.
Label false (0) if growth inhibition falls below 80%; label true (1) in every other case.

Below, 5 molecules whose answers are already recorded.
molecule=C/C(=N\NC(=S)N1CCN(C2CCCCCC2)CC1)c1ccccn1 assigned_category="false (0)"
molecule=CN(C)C(=S)Oc1ccc(C(C)(C)C)cc1 assigned_category="false (0)"
molecule=CCCCCCCCCCCCNCC#N assigned_category="true (1)"
molecule=O=C(Cc1ccc(C2=NCCN2)cc1[N+](=O)[O-])c1ccc(C2=NCCN2)cc1 assigned_category="false (0)"
molecule=CCOC(=O)/C(=C\c1ccc(C)cc1)C(C)=O assigned_category="true (1)"

**Query** Does O=P(OCCCl)(OCCCl)C(Nc1cccc2ccccc12)c1ccccc1 (centres undefined) have a reported growth inhibition of at least 80%?
**Result** true (1)

**Query** Please check the record COc1nc(N)c(N=O)c(OCc2ccccc2)n1 and state if its growth inhibition is at or above 80%.
**Result** true (1)

**Query** Evaluate CC1=C(C(=O)Nc2ccccc2)C(c2cc(Cl)cc(Cl)c2)C(C(=O)Nc2ccccc2)=C(C)N1 : growth inhibition at minimum 80%?
**Result** true (1)

**Query** growth inhibition >= 80% for C=C1C(=O)O[C@@H]2C[C@]3(C)CC[C@]4(C)[C@H](CC[C@@H]5[C@@]6(C)CCC(=O)C(C)(C)[C@@H]6CC[C@]54C)[C@H]3[C@H]12 ?
**Result** false (0)

**Query** Does the reported growth inhibition for ClC1=CC(Cl)=C2N=C(C(Cl)(Cl)Cl)N=C3N=C(C(Cl)(Cl)Cl)N=C1N32 fall at or above the 80% mark?
**Result** true (1)

**Query** Assess whether reported growth inhibition for Clc1ccc(/C=N\Nc2ccccc2)c(Cl)c1 sits at 80% or higher.
**Result** false (0)

**Query** API: above_or_equal(metric=growth inhibition, cutoff=80%) for item CCOC(=O)c1ccc2c(c1)Cc1cc([N+](=O)[O-])ccc1-2
**Result** false (0)

**Query** Textbook exercise: given the entry CC(C)COP(=O)(OCC(C)C)C(NS(=O)(=O)c1ccccc1)(C(F)(F)F)C(F)(F)F , state whether its growth inhibition is greater than or equal to 80%.
**Result** false (0)

**Query** # bool: growth inhibition of S=C(N/N=C(/c1ccccc1)c1ccccn1)Nc1ccccc1 >= 80%
**Result** true (1)

**Query** Is reported growth inhibition greater than or equal to 80% here: O=[N+]([O-])/C(C(Cl)=C(Cl)Cl)=C(/Nc1ccccc1)SCc1ccccc1
**Result** false (0)

**Query** For this molecule, is measured growth inhibition 80% or higher? O=C(O)C1CCC(CC2CC3CCC2C3)CC1 (centres undefined)
**Result** false (0)

**Query** Please tell me: is the molecule O=C(O)C1OC(Oc2ccc3oc4ccccc4c(=O)c3c2)C(O)C(O)C1O (centres undefined) at or over 80% in terms of growth inhibition?
**Result** false (0)
